Hey, just so you know, these numbers are from ChEMBL document CHEMBL1201862.

# System: HCT-116
# PROCEDURE TEXT: NCI tumour cell line growth inhibition, 48 h
The source made the active and inactive calls. Rule as the data show it: active = GI50 up to about 1.1 µM and inactive = higher.
MEASUREMENT NAME: GI50

CC1=C(/C=C/C(=O)O)C(C)(C)CCC1 | > 100 µM (inactive)
C/C=C/C=C\C1OC(O)([C@H](CC)C(=O)NC/C=C/C=C(\C)[C@H](OC)C(C)C2OC(\C=C/C=C/C=C(\C)C(=O)c3c(O)ccn(C)c3=O)[C@H](O)[C@@H]2O)C(O)C(O)C1(C)C (some centres undefined) | > 100 µM (inactive)
CC1=C(C)C(=O)C(C2=CC(=O)C=CC2=O)=C(C2=CC(=O)C=CC2=O)C1=O | 31.8 µM (inactive)
Nc1ncnc2c1cnn2COCC(O)CO (centres undefined) | > 100 µM (inactive)
O=C1/C(=C\c2c(-c3ccccc3)[nH]n(-c3ccccc3)c2=O)C(c2ccccc2)=NN1c1ccccc1 | > 100 µM (inactive)

Record GI50 for all entries; do not skip any.
1. NC(=O)CCC(Nc1c2ccccc2[n+]([O-])c2ccccc12)C(=O)O (centres undefined)
2. CN(CCNC(=O)c1c[nH]c2c1ccc1ccccc12)CCNC(=O)c1c[nH]c2c1ccc1ccccc12
3. COC(=O)C1=C2Nc3ccccc3C23CCN2C(O)C4(CC5CC67CCOC6CCN6CCC8(c9cccc(OC)c9N(C4)C58O)C67)C4OCCC4(C1)C23 (centres undefined)
4. CCN(CC)C(=S)SS(=O)(=O)c1ccccc1[N+](=O)[O-]
5. CC1=C(C#N)C(C#N)(C#N)C(NN(C)C)C1 (centres undefined)
6. O=C1CC(NCCCNC2CC(=O)c3c(Br)sc(Br)c32)c2c(Br)sc(Br)c21 (centres undefined)
7. Cc1ccc(NC(=O)C(=O)CC(=O)C2CCOC2=O)c(C)c1 (centres undefined)
8. CCOC(=O)c1c[nH]c2c(ccc3nn(C)nc32)c1=O

Outgoing:
1. 38.3 µM (inactive)
2. 1.76 µM (inactive)
3. 34.5 µM (inactive)
4. 18.2 µM (inactive)
5. 11 µM (inactive)
6. 1.36 µM (inactive)
7. > 100 µM (inactive)
8. 24.9 µM (inactive)

Record GI50 for all entries; do not skip any.
1. Cc1ccnc(NS(=O)(=O)c2ccc(NC(=O)c3ccc4nc5ccccc5c(Nc5ccc(S(=O)(=O)Nc6nccc(C)n6)cc5)c4c3)cc2)n1
2. O=C(Cc1nc2c3c(ccc2nc1O)C(=O)c1ccccc1C3=O)C(=O)Nc1ccccc1[N+](=O)[O-]
3. O=C(c1ccc(Cl)c(Cl)c1)N(C(=S)OC12CC3CC(CC(C3)C1)C2)c1ccccc1
4. CN(C)c1ccc(/C=N/Nc2nc3ccccc3c(=O)n2-c2ccccc2)cc1
5. Cc1c(-c2ccccc2)c(C#N)c2nnn(-c3ccc([N+](=O)[O-])cc3)c(=O)n12
6. COc1ccc(C(CC2(c3ccc(OC)cc3)SCCCS2)NC(C)=O)cc1 (centres undefined)

Outgoing:
1. 59 µM (inactive)
2. 26.6 µM (inactive)
3. 24.8 µM (inactive)
4. 51.5 µM (inactive)
5. 24.5 µM (inactive)
6. 56.1 µM (inactive)
